Values were extracted from PubChem BioAssay AID2314.

assay: Cycloheximide Counterscreen for Small Molecule Inhibitors of Shiga Toxin; conditions: cell reporter, cycloheximide protein synthesis inhibition counterscreen; also: read at 38.3 µM for the half of the compounds with a filed dose
The campaign covered roughly 300,000 compounds. About 37,000 (12%) were called active. Rule as the data show it: active = max response mostly above about 13% (no sharp cut-off); inactive = mostly below about 14%. This is one part of a sample in which actives are shown more often than they occur.
Select the correct class. Options are Yes = active, No = inactive and nothing else.

Past entries and their recorded results:
• C#CC(C)(C)NC(=O)c1cnc(-c2ccccc2)nc1-c1ccccc1 = No
• CCOc1ccc(C(=O)Nc2ccncc2)cc1 = Yes
• Cc1cccc(C(=O)NC(=S)N(C)C2CCCCC2)c1 = Yes
• CCOc1ccc(NC(=O)CCNC(=O)c2ccc(Br)cc2)cc1 = No
• COC(=O)C1=CN(Cc2ccc(OC)cc2)C=C(C(=O)OC)C1c1ccc(O)c(OC)c1 = No

Dear all, I need the recorded test outcome for "Cc1cccc(C(=O)NCCCN(C)CCCNC(=O)c2cccc(C)c2)c1" , thank you.
No

Dear all, I need the recorded test outcome for "CCOc1ccc(NC(=O)CSc2nncn2C)cc1" , thank you.
No

Dear all, I need the recorded test outcome for "CN(C)S(=O)(=O)c1ccc(N/C=C(\[N+](=O)[O-])S(=O)(=O)c2ccccc2)cc1" , thank you.
No

Dear all, I need the recorded test outcome for "CCOC(=O)c1c(-c2ccccc2)oc2cc(Br)c(O)cc12" , thank you.
No

Dear all, I need the recorded test outcome for "CCOc1cccc(NC(=O)CC#N)c1" , thank you.
No

Dear all, I need the recorded test outcome for "Fc1ccc2nc(-c3ccccc3)nc(SCc3nnc(-c4ccccc4)o3)c2c1" , thank you.
No

Dear all, I need the recorded test outcome for "COC(=O)c1ccccc1NC(=O)c1ccccc1NS(C)(=O)=O" , thank you.
No

Dear all, I need the recorded test outcome for "COc1ccc(F)c(-c2nc(CN3CCC(c4ccccc4)CC3)c(C)o2)c1" , thank you.
No

Dear all, I need the recorded test outcome for "C[C@H]1[C@H]2c3nc4ccccc4n3C[C@H]1ON2C1CCCCC1" , thank you.
No

Dear all, I need the recorded test outcome for "CCCNC(=O)Nc1ccccc1C(=O)Nc1ccc(OC)cc1" , thank you.
No

Dear all, I need the recorded test outcome for "O=C(NCc1ccco1)c1ccc([N+](=O)[O-])cc1Cl" , thank you.
No

Dear all, I need the recorded test outcome for "COc1ccc(CSc2nnnn2-c2ccc(C(=O)O)cc2)cc1" , thank you.
No

Dear all, I need the recorded test outcome for "Cc1cccc(NC(=S)NCCN(C2CCCCC2)C2CCCC2)c1" , thank you.
No

Dear all, I need the recorded test outcome for "Fc1ccc(-c2nnc(CSc3nnc(-c4ccc5c(c4)OCO5)o3)o2)cc1" , thank you.
Yes

Dear all, I need the recorded test outcome for "Cc1ccc(C)c(NS(=O)(=O)c2cc(Br)cnc2N)c1" , thank you.
No

Dear all, I need the recorded test outcome for "O=C(NCc1ccco1)c1sc2cccc(F)c2c1Cl" , thank you.
Yes

Dear all, I need the recorded test outcome for "COc1cccc(NC(=O)CCc2nnc3ccc(N4CCC(C)CC4)nn23)c1" , thank you.
No

Dear all, I need the recorded test outcome for "Cc1cccc(C(=O)NC(=S)N2CCN(c3ccc([N+](=O)[O-])cc3)CC2)c1" , thank you.
No
